# kon per record follows
Assay Target: T1, recombinant human 4R0N tau (human, UniProt P10636 2-758)
T1 construct: also called recombinant 4R0N human tau; P10636-6
T1 sequence (P10636 other isoform, or with tags, fused parts or gaps limits assumed): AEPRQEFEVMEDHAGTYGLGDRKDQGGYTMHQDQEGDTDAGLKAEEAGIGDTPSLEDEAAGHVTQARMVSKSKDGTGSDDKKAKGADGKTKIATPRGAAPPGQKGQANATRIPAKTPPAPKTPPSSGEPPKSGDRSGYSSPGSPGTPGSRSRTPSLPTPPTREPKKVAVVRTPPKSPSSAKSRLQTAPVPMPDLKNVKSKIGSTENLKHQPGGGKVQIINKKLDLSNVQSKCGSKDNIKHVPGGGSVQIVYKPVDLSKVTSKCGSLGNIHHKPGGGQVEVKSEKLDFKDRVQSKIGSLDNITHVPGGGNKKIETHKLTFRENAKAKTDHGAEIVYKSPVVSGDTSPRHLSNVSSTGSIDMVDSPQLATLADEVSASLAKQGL
Experimental Protocol: SPR Biacore; antibody captured by anti-mouse antibody; tau as analyte; global 1:1 fit
Field format: number, assumed M⁻¹ s⁻¹, no unit text.

{"columns": ["Binder", "Unit Symbol", "kon"],
 "data": [
  ["mouse 10C12 antibody (antibody, mouse IgG2a, V domains shown, also called m10C12) VH: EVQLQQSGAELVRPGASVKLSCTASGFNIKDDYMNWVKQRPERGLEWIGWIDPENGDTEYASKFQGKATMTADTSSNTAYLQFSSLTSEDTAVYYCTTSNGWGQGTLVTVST VL: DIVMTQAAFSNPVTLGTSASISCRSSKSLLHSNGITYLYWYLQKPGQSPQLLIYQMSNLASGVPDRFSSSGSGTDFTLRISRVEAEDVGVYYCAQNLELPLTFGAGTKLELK", "M⁻¹ s⁻¹", "6.53e+06"],
  ["mouse 2D11 antibody (antibody, mouse IgG2a, V domains shown) VH: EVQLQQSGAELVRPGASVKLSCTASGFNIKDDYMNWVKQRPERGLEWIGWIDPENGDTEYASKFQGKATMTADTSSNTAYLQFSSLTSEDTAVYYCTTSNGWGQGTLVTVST VL: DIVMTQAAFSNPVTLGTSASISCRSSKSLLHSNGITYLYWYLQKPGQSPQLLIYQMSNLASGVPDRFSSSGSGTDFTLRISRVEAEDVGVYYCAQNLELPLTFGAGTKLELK", "M⁻¹ s⁻¹", "6.93e+06"]
]}

Which kon value belongs to mouse 12C4 antibody (antibody, mouse IgG2a, V domains shown, also called m12C4) VH: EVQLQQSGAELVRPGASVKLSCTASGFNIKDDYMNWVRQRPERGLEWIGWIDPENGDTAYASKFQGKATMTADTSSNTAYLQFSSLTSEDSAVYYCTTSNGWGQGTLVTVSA VL: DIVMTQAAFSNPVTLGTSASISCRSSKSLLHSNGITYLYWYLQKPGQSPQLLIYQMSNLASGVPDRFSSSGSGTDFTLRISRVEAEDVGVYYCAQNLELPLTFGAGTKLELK ? 5.69e+06
